tested on: SK-MEL-5 melanoma; experiment: NCI-60 one-dose screen, 48 h (100 = growth as untreated, 0 = no growth, -100 = all killed); conditions: 10 µM unless noted
The panel holds about 83,000 compounds, 20% with a hit somewhere; the sample as a whole holds those more often.
RECORDED_ENDPOINT: growth (%)
Numbers only; they are read as %.

For CCSc1nc(Cl)c(C#N)c(-c2ccc(F)cc2)n1 , write its growth. 97.1

For C=C(C)[C@@H]1CC[C@]2(C(=O)NCCCO)CC[C@]3(C)[C@H](CC[C@@H]4[C@@]5(C)CCCNC(C)(C)[C@@H]5CC[C@]43C)[C@@H]12 , write its growth. 13

For CC(=O)c1ccc(NC(=O)CSc2nnc(-c3cc(-c4ccc(C)cc4)nc4ccccc34)o2)cc1 , write its growth. 68.7

For C=C1C(=O)O[C@H]2[C@H]1CC/C(COC(=O)n1ccnc1)=C\CC[C@@]1(C)O[C@@H]21 , write its growth. 98.5

For COc1ccc(Cc2nc(C#N)c(N3CCN(c4ccc(F)cc4)CC3)o2)cc1 , write its growth. 100

For Cc1cc(C)cc(Nc2nccc(-c3c(-c4ccc(F)cc4)ncn3C3CCNCC3)n2)c1 , write its growth. -87.6

For COC(=O)/C=C/c1cc(OC(C)=O)c2c(c1)C(C(=O)OC)C(c1ccc(OC(C)=O)c(OC(C)=O)c1)O2 (centres undefined) , write its growth. -19

For O=c1[nH]c2ccccc2cc1-c1nc2ccncc2[nH]1 , write its growth. 86.7

For CCOC(=O)/C=C1\SC(=Nc2ccc(C#N)cc2)N(CCN2C(=O)/C(=C/C(=O)OCC)SC2=Nc2ccc(C#N)cc2)C1=O , write its growth. 58.8

====

system: T-47D breast; test: NCI-60 one-dose screen, 48 h (100 = growth as untreated, 0 = no growth, -100 = all killed); conditions: 10 µM unless noted
About 83,000 compounds went through this panel and 20% of them were active in at least one assay; those are over-represented in the sample as a whole.
The label depends only on growth: MET if it is at least 50%, NOT MET if it is smaller.

Has COc1ccc2c(c1)Oc1nc(N)c(C#N)c(N)c1C2Sc1ccc(SC)cc1 (centres undefined) a recorded growth greater than or equal to 50%? NOT MET

Has COc1cc(NC(=O)COc2cc(C)nc3ccc(OC)cc23)cc(OC)c1 a recorded growth greater than or equal to 50%? MET

Has Nc1ccccc1NS(=O)(=O)c1ccc(Cl)cc1 a recorded growth greater than or equal to 50%? MET

Has COc1ccc(N(C)c2nc(Cl)nc3ccn(C)c23)cc1 a recorded growth greater than or equal to 50%? MET

Has CC(=O)Nc1ccc2c(c1)Cc1cc(F)ccc1-2 a recorded growth greater than or equal to 50%? MET

Has C=C1C(=O)O[C@H]2[C@H]1CC/C(COC(=O)CCCCCCC(=O)OC/C1=C/CC[C@@]3(C)O[C@H]3[C@H]3OC(=O)C(=C)[C@@H]3CC1)=C\CC[C@@]1(C)O[C@@H]21 a recorded growth greater than or equal to 50%? NOT MET

Has CCOC(=O)c1c(C)nc2c(c1N)CC(=O)N2CCc1ccccc1 a recorded growth greater than or equal to 50%? MET

Has Nc1c(C(=O)Nc2ccccc2)sc2nc3c(cc12)CN(C(=O)OCc1ccccc1)CC3 a recorded growth greater than or equal to 50%? MET

Has CC[C@]12C=CCN3CC[C@@]4(c5cc(NC(=O)CCC(=O)O[C@H]6CC[C@H]7[C@@H]8CC[C@H]9CC(=O)CC[C@]9(C)[C@H]8CC[C@]67C)c(OC)cc5N(C)[C@H]4[C@@](O)(C(=O)OC)[C@@H]1OC(C)=O)[C@@H]32 a recorded growth greater than or equal to 50%? NOT MET

Numbers sourced from PubChem BioAssay (NCI).
